Source listed as paper PMC7251097.

test.target: His6-AspH315–758 (human aspartate/asparagine-β-hydroxylase, AspH) (Homo sapiens, UniProt Q12797)
Construct: N-Terminally His6-tagged human AspH315–758 (His6-AspH315–758) was produced in E. coli BL21 (DE3) cells; made in house; host or cells: E. coli BL21 (DE3), pET-28a(+) vector
Sequence (Q12797 315-758): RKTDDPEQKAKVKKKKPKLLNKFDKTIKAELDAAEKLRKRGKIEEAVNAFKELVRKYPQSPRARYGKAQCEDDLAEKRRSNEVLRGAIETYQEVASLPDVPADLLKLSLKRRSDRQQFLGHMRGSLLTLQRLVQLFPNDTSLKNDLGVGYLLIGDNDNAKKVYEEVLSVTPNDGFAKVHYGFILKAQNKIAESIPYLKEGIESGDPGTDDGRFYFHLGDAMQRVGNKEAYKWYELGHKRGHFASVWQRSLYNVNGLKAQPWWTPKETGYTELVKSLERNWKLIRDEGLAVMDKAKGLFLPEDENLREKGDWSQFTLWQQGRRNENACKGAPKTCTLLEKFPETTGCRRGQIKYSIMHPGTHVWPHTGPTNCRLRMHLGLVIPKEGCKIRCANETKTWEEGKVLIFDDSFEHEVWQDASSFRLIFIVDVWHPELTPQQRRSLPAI
protocol.text: SPE-MS AspH inhibition assay (LOPAC screen at fixed 20 μM and IC50 dose-response), hydroxylation of cyclic peptide hFX-CP101–119
Format: biochemical
test.context: LOPAC compound at fixed 20 uM; substrate conversion, plate 1
Counter-ions that a name gives are not always drawn.
For each record, write down the corresponding Plate 1 (% conversion).
Answers are plain numbers, in %.

Known Plate 1 (% conversion) results, listed for orientation:
compound	Plate 1 (% conversion), %
C[N+]1(C)[C@@H]2CC[C@H]1C[C@@H](OC(=O)C(CO)c1ccccc1)C2 (some centres unmarked) [Atropine methyl bromide]	40.71
NC(=NCc1ccccc1)NC(=O)c1nc(Cl)c(N)nc1N [Benzamil hydrochloride]	33.07
NCC(CC(=O)O)c1ccc(Cl)cc1 (racemic) [(±)-Baclofen]	36.54
NC(=O)c1cc(N2CC2)c([N+](=O)[O-])cc1[N+](=O)[O-]	34.24
Cl.Nc1ccn([C@@H]2O[C@H](CO)[C@@H](O)[C@@H]2O)c(=O)n1	36.77
Nc1nc2c(ncn2COCCO)c(=O)[nH]1	37.01
O=C(O)c1cc(O)cc(C(=O)O)n1	19.44
CNC(=O)[C@H]1O[C@@H](n2cnc3c(NCc4ccc(N)cc4)ncnc32)[C@H](O)[C@@H]1O	37.97
CC(=O)OCC1=C(C(=O)O)N2C(=O)[C@@H](NC(=O)Cc3cccs3)[C@H]2SC1 [Cephalothin sodium]	32.56
Cl.N=C(N)NN [Aminoguanidine hydrochloride]	40.22

Count: 5. Required value per item: Plate 1 (% conversion).
1. CCCCC[C@H](CC(=O)NO)C(=O)N[C@H](C(=O)N1CCC[C@H]1CO)C(C)C
2. O=c1nc2[nH]c3ccccc3nc-2c(=O)[nH]1
3. O=[N+]([O-])c1cccc2c(Br)n[nH]c12
4. CC(=O)C(C)=NO
5. Clc1cccc(Cl)c1N=C1NCCN1 [Clonidine hydrochloride]

Return:
[37.66, 40.45, 35.26, 36.94, 40.53]
